Origin of values: patent US20240043860A1

target: HPPD variant AVESA V349 (SEQ ID NO: 47) (Avena sativa, UniProt A0ACD5V6K6, A327R/I340E/L359M/P271N/S304T/V218I); test: biochemical; type: biochemical; settings: AVESA V349, SEQ ID NO: 47; read-out: IC50
Sequence (A0ACD5V6K6 entry or part of it V218I/P271N/S304T/A327R/I340E/L359M): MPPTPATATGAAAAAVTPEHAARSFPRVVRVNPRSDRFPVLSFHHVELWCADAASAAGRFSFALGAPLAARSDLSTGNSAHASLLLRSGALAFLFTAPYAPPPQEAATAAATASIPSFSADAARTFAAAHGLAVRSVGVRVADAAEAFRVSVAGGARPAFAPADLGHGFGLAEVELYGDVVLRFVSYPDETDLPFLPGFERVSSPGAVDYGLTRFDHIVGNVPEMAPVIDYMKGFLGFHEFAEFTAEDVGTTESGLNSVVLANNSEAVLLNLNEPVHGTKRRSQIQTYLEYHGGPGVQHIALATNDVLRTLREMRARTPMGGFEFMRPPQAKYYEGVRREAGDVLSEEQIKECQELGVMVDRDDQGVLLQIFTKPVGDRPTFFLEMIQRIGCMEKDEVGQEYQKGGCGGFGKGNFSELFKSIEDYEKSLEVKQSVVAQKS
reported-metric: IC50

Prompt: Could you share which IC50 value was measured for COc1ccc(-n2nc(C)cc(C(=O)C3C(=O)CCCC3=O)c2=O)cc1OC [Herbicide C, dioxopyritrione] ?
Completion: > 50 µM

* * *

Target: HPPD variant AVESA V307 (SEQ ID NO: 35) (Avena sativa, UniProt A0ACD5V6K6, A327R/I340E/L359M/P271N/R214G/V218I/V260A)
Sequence (A0ACD5V6K6 entry or part of it R214G/V218I/V260A/P271N/A327R/I340E/L359M): as the sequence (A0ACD5V6K6 entry or part of it V218I/P271N/S304T/A327R/I340E/L359M) above, with R214G, V260A, T304S counted along it
Assay: biochemical
Type: biochemical
Conditions: AVESA V307, SEQ ID NO: 35; read-out: IC50
Method: 25 ul of the overnight cultures were inoculated into fresh 96-deepwell block containing 1 ml Formedium Autoinduction Media (AIM). The AIM cultures were grown for 3h at 37° C. (900rpm) and then transferred to 20° C. overnight (900rpm) to allow protein expression. The overnight cultures were centrifuged and 500 ul of Cellytic B (Sigma Aldrich) was added to resuspend the cell pellets. The coupled HGO assay (Siehl et al, 2014) is used to generate IC50 values for the HPPD variants of interest. […]
pIC50: −log10 of the molar value.
reported-metric: pIC50

Prompt: Item under review: COc1ccc(-n2nc(C)cc(C(=O)C3C(=O)CCCC3=O)c2=O)cc1OC [Herbicide C, dioxopyritrione] . Reported pIC50?
Completion: > 6.72
